Test system: DU-145
Assay: SRB colorimetric assay of cell growth and viability, DU-145
Type: cell-based, human
Details: DU-145; 48 hours exposure
Where a SMILES comes first, the peptide text is derived from it. Bridges are numbered along the chain shown (N, C = ends). [ ]: non-standard residue; d: D form. The star is where a group is joined. Bip = N[C@@H](Cc1ccc(-c2ccccc2)cc1)C(=O)O; 2Nal = N[C@@H](Cc1ccc2ccccc2c1)C(=O)O; d(aIle) = CC[C@H](C)[C@@H](N)C(=O)O; d(aThr) = C[C@@H](O)[C@@H](N)C(=O)O; Hexanoyl(5-Me) = CC(C)CCCC(=O)*; Phg = N[C@H](C(=O)O)c1ccccc1; Orn = NCCC[C@H](N)C(=O)O; Dhb = C/C=C(\N)C(=O)O
assay metric: LC50 (concentration causing 50% net cell kill) (nM)

compound	value measured
C/C=C1\NC(=O)[C@H](Cc2ccccc2)NC(=O)[C@@H](C(C)C)NC(=O)[C@@H]([C@@H](C)CC)NC(=O)[C@H](NC(=O)[C@H](NC(=O)[C@H](CCCN)NC(=O)[C@H]2CCCN2C(=O)[C@H](NC(=O)[C@@H](NC(=O)[C@H](CCCN)NC(=O)[C@H](NC(=O)CCCC(C)C)C(C)C)C(C)C)C(C)C)[C@@H](C)CC)[C@@H](C)OC(=O)[C@H](C(C)C)NC1=O [Compound 116, [Orn^12]-KF] ({Hexanoyl(5-Me)}-[dV][Orn]V[dV][dP][Orn][d(aIle)][d(aThr)][d(aIle)][dV]F[Dhb]V; ester 8-C)	6710
C/C=C1\NC(=O)[C@H](Cc2ccc(-c3ccccc3)cc2)NC(=O)[C@@H](C(C)C)NC(=O)[C@@H]([C@@H](C)CC)NC(=O)[C@H](NC(=O)[C@H](NC(=O)[C@H](CCCN)NC(=O)[C@H]2CCCN2C(=O)[C@H](NC(=O)[C@@H](NC(=O)[C@@H](NC(=O)[C@H](NC(=O)CCCC(C)C)C(C)C)[C@@H](C)O)C(C)C)C(C)C)[C@@H](C)CC)[C@@H](C)OC(=O)[C@H](C(C)C)NC1=O [Compound 86, [Bip^3]-KF] ({Hexanoyl(5-Me)}-[dV]TV[dV][dP][Orn][d(aIle)][d(aThr)][d(aIle)][dV][Bip][Dhb]V; ester 8-C)	527
C/C=C1\NC(=O)[C@H](Cc2ccc(Cl)cc2)NC(=O)[C@@H](C(C)C)NC(=O)[C@@H]([C@@H](C)CC)NC(=O)[C@H](NC(=O)[C@H](NC(=O)[C@H](CCCN)NC(=O)[C@H]2CCCN2C(=O)[C@H](NC(=O)[C@@H](NC(=O)[C@@H](NC(=O)[C@H](NC(=O)CCCC(C)C)C(C)C)[C@@H](C)O)C(C)C)C(C)C)[C@@H](C)CC)[C@@H](C)OC(=O)[C@H](C(C)C)NC1=O [Compound 83, [Phe(4-Cl)^3]-KF]	461
C/C=C1\NC(=O)[C@H](Cc2ccccc2)NC(=O)[C@@H](C(C)C)NC(=O)[C@@H]([C@@H](C)CC)NC(=O)[C@H](NC(=O)[C@H](NC(=O)[C@H](CCCN)NC(=O)[C@H]2CCCN2C(=O)[C@H](NC(=O)[C@@H](NC(=O)[C@H](Cc2ccccc2)NC(=O)[C@H](NC(=O)CCCC(C)C)C(C)C)C(C)C)C(C)C)[C@@H](C)CC)[C@@H](C)OC(=O)[C@H](C(C)C)NC1=O [Compound 114, [Phe^12]-KF] ({Hexanoyl(5-Me)}-[dV]FV[dV][dP][Orn][d(aIle)][d(aThr)][d(aIle)][dV]F[Dhb]V; ester 8-C)	1730
C/C=C1\NC(=O)[C@H](Cc2ccc3ccccc3c2)NC(=O)[C@@H](C(C)C)NC(=O)[C@@H]([C@@H](C)CC)NC(=O)[C@H](NC(=O)[C@H](NC(=O)[C@H](CCCN)NC(=O)[C@H]2CCCN2C(=O)[C@H](NC(=O)[C@@H](NC(=O)[C@@H](NC(=O)[C@H](NC(=O)CCCC(C)C)C(C)C)[C@@H](C)O)C(C)C)C(C)C)[C@@H](C)CC)[C@@H](C)OC(=O)[C@H](C(C)C)NC1=O [Compound 85, [Nal^3]-KF] ({Hexanoyl(5-Me)}-[dV]TV[dV][dP][Orn][d(aIle)][d(aThr)][d(aIle)][dV][2Nal][Dhb]V; ester 8-C)	488
C/C=C1\NC(=O)[C@H](c2ccccc2)NC(=O)[C@@H](C(C)C)NC(=O)[C@@H]([C@@H](C)CC)NC(=O)[C@H](NC(=O)[C@H](NC(=O)[C@H](CCCN)NC(=O)[C@H]2CCCN2C(=O)[C@H](NC(=O)[C@@H](NC(=O)[C@@H](NC(=O)[C@H](NC(=O)CCCC(C)C)C(C)C)[C@@H](C)O)C(C)C)C(C)C)[C@@H](C)CC)[C@@H](C)OC(=O)[C@H](C(C)C)NC1=O [Compound 87, [Phg^3]-KF] ({Hexanoyl(5-Me)}-[dV]TV[dV][dP][Orn][d(aIle)][d(aThr)][d(aIle)][dV][Phg][Dhb]V; ester 8-C)	1900
C/C=C1\NC(=O)[C@H](Cc2ccccc2Cl)NC(=O)[C@@H](C(C)C)NC(=O)[C@@H]([C@@H](C)CC)NC(=O)[C@H](NC(=O)[C@H](NC(=O)[C@H](CCCN)NC(=O)[C@H]2CCCN2C(=O)[C@H](NC(=O)[C@@H](NC(=O)[C@@H](NC(=O)[C@H](NC(=O)CCCC(C)C)C(C)C)[C@@H](C)O)C(C)C)C(C)C)[C@@H](C)CC)[C@@H](C)OC(=O)[C@H](C(C)C)NC1=O [Compound 81, [Phe(2-Cl)^3]-KF]	1210
C/C=C1\NC(=O)[C@H](Cc2ccccc2)NC(=O)[C@@H](C(C)C)NC(=O)[C@@H]([C@@H](C)CC)NC(=O)[C@H](NC(=O)[C@H](NC(=O)[C@H](CCCN)NC(=O)[C@H]2CCCN2C(=O)[C@H](NC(=O)[C@@H](NC(=O)[C@H](CCC(N)=O)NC(=O)[C@H](NC(=O)CCCC(C)C)C(C)C)C(C)C)C(C)C)[C@@H](C)CC)[C@@H](C)OC(=O)[C@H](C(C)C)NC1=O [Compound 119, [Gln^12]-KF] ({Hexanoyl(5-Me)}-[dV]QV[dV][dP][Orn][d(aIle)][d(aThr)][d(aIle)][dV]F[Dhb]V; ester 8-C)	1990

* * *

Test system: SK-MEL-28
Assay: SRB colorimetric assay of cell growth and viability, SK-MEL-28
Type: cell-based, human
Conditions: 48 hours exposure, SRB; read-out: LC50 MEL-28
// reported CC50 per item
assay metric: CC50

compound	value measured
C/C=C1\NC(=O)[C@H](Cc2ccccc2)NC(=O)[C@@H](C(C)C)NC(=O)[C@@H]([C@@H](C)CC)NC(=O)[C@H](NC(=O)[C@H](NC(=O)[C@H](CCCN)NC(=O)[C@H]2CCCCN2C(=O)[C@H](NC(=O)[C@@H](NC(=O)[C@@H](NC(=O)[C@H](NC(=O)CC[C@@H](C)CC)C(C)C)[C@@H](C)O)C(C)C)C(C)C)[C@@H](C)CC)[C@@H](C)OC(=O)[C@H](C(C)C)NC1=O [Compound 60, [D-Pip^9, (4S)-MeHex^14]-KF]	5.68 µM
C/C=C1\NC(=O)[C@H](Cc2c(F)c(F)c(F)c(F)c2F)NC(=O)[C@@H](C(C)C)NC(=O)[C@@H]([C@@H](C)CC)NC(=O)[C@H](NC(=O)[C@H](NC(=O)[C@H](CCCN)NC(=O)[C@H]2CCCN2C(=O)[C@H](NC(=O)[C@@H](NC(=O)[C@@H](NC(=O)[C@H](NC(=O)CC[C@@H](C)CC)C(C)C)[C@@H](C)O)C(C)C)C(C)C)[C@@H](C)CC)[C@@H](C)OC(=O)[C@H](C(C)C)NC1=O [Compound 71, [Phe(F5)^3, (4S)-MeHex^14]-KF]	3.8 µM
C/C=C1\NC(=O)[C@H](Cc2ccccc2)N(C)C(=O)[C@@H](C(C)C)NC(=O)[C@@H]([C@@H](C)CC)NC(=O)[C@H](NC(=O)[C@H](NC(=O)[C@H](CCCN)NC(=O)[C@H]2CCCN2C(=O)[C@H](NC(=O)[C@@H](NC(=O)[C@@H](NC(=O)[C@H](NC(=O)CC[C@@H](C)CC)C(C)C)[C@@H](C)O)C(C)C)C(C)C)[C@@H](C)CC)[C@@H](C)OC(=O)[C@H](C(C)C)NC1=O [Compound 80, [NMePhe^3, (4S)-MeHex^14]-KF]	3.84 µM

* * *

Tested on: DU-145
Experiment: SRB colorimetric assay of cell growth and viability, DU-145
Assay type: cell-based, human
Conditions: 48 hours exposure, SRB
Where a SMILES comes first, the peptide text is derived from it. Bridges are numbered along the chain shown (N, C = ends). [ ]: non-standard residue; d: D form. The star is where a group is joined. d(aIle) = CC[C@H](C)[C@@H](N)C(=O)O; d(aThr) = C[C@@H](O)[C@@H](N)C(=O)O; Hexanoyl(5-Me) = CC(C)CCCC(=O)*; Orn = NCCC[C@H](N)C(=O)O; Dha = C=C(N)C(=O)O
assay metric: LC50 (concentration causing 50% net cell kill)

compound	system name	value measured
C/C=C1\NC(=O)[C@H](Cc2ccc([N+](=O)[O-])cc2)NC(=O)[C@@H](C(C)C)NC(=O)[C@@H]([C@@H](C)CC)NC(=O)[C@H](NC(=O)[C@H](NC(=O)[C@H](CCCN)NC(=O)[C@H]2CCCN2C(=O)[C@H](NC(=O)[C@@H](NC(=O)[C@@H](NC(=O)[C@H](NC(=O)CC[C@@H](C)CC)C(C)C)[C@@H](C)O)C(C)C)C(C)C)[C@@H](C)CC)[C@@H](C)OC(=O)[C@H](C(C)C)NC1=O [Compound 73, [Phe(4-NO2)^3, (4S)-MeHex^14]-KF]	DU-145	2.04 µM
C=C1NC(=O)[C@H](Cc2ccccc2)NC(=O)[C@@H](C(C)C)NC(=O)[C@@H]([C@@H](C)CC)NC(=O)[C@H](NC(=O)[C@H](NC(=O)[C@H](CCCN)NC(=O)[C@H]2CCCN2C(=O)[C@H](NC(=O)[C@@H](NC(=O)[C@@H](NC(=O)[C@H](NC(=O)CCCC(C)C)C(C)C)[C@@H](C)O)C(C)C)C(C)C)[C@@H](C)CC)[C@@H](C)OC(=O)[C@H](C(C)C)NC1=O [Compound 67, [Dha^2]-KF] ({Hexanoyl(5-Me)}-[dV]TV[dV][dP][Orn][d(aIle)][d(aThr)][d(aIle)][dV]F[Dha]V; ester 8-C)	DU-145	3.4 µM
